Test Details: Edaravone solubility, slurry/shake-flask method with spectrophotometric determination at 243 nm
Format: physicochemical
Condition Parameters: 40 °C, aqueous with cosolvent or surfactant or cyclodextrin, thermodynamic from solid, water + ETA (ChCl:EG 1:2), x*ETA = 0.4, 313.15 K; read-out: cE solubility concentration
Measured Endpoint: solubility at 24 h (mg/mL)
Give just the number in mg/mL; leave the unit off.

Recorded solubility at 24 h (compound CC1=NN(c2ccccc2)C(=O)C1 ): 684

* * *

Test Details: Edaravone solubility, slurry/shake-flask method with spectrophotometric determination at 243 nm
Format: physicochemical
Condition Parameters: deep eutectic solvent + water binary mixture, 40 °C, aqueous with cosolvent or surfactant or cyclodextrin, thermodynamic from solid, water + ETA (ChCl:EG 1:2), x*ETA = 0.6, 313.15 K; read-out: cE solubility concentration
Measured Endpoint: solubility at 24 h (mg/mL)
Give just the number in mg/mL; leave the unit off.

Recorded solubility at 24 h (molecule CC1=NN(c2ccccc2)C(=O)C1 ): 753

* * *

Test Details: Edaravone solubility, slurry/shake-flask method with spectrophotometric determination at 243 nm
Format: physicochemical
Condition Parameters: neat deep eutectic solvent, 30 °C, organic solvent or mixture, thermodynamic from solid, neat DES choline chloride + ethylene glycol (ETA) 1:1 molar ratio, 303.15 K; read-out: cE solubility concentration
Measured Endpoint: solubility at 24 h (mg/mL)
Give just the number in mg/mL; leave the unit off.

Recorded solubility at 24 h (compound CC1=NN(c2ccccc2)C(=O)C1 ): 252

* * *

Test Details: Edaravone solubility, slurry/shake-flask method with spectrophotometric determination at 243 nm
Format: physicochemical
Condition Parameters: neat deep eutectic solvent, 25 °C, organic solvent or mixture, thermodynamic from solid, neat DES choline chloride + glycerol (GLE) 1:1 molar ratio, 298.15 K; read-out: cE solubility concentration
Measured Endpoint: solubility at 24 h (mg/mL)
Give just the number in mg/mL; leave the unit off.

Recorded solubility at 24 h (compound CC1=NN(c2ccccc2)C(=O)C1 [edaravone, 5-methyl-2-phenyl-4H-pyrazol-3-one] ): 138

* * *

Test Details: Edaravone solubility, slurry/shake-flask method with spectrophotometric determination at 243 nm
Format: physicochemical
Condition Parameters: 40 °C, organic solvent or mixture, thermodynamic from solid, neat DES choline chloride + glycerol (GLE) 1:2 molar ratio (x*GLE = 1.0), 313.15 K; read-out: cE solubility concentration
Measured Endpoint: solubility at 24 h (mg/mL)
Give just the number in mg/mL; leave the unit off.

Recorded solubility at 24 h (compound CC1=NN(c2ccccc2)C(=O)C1 ): 492

* * *

Test Details: Edaravone solubility, slurry/shake-flask method with spectrophotometric determination at 243 nm
Type: physicochemical
Condition Parameters: water, neat water (x*DES = 0.0), 303.15 K; read-out: cE solubility concentration
Measured Endpoint: solubility at 24 h

Recorded solubility at 24 h (compound CC1=NN(c2ccccc2)C(=O)C1 ): 1790 µg/mL

* * *

Test Details: Edaravone solubility, slurry/shake-flask method with spectrophotometric determination at 243 nm
Format: physicochemical
Condition Parameters: 25 °C, organic solvent or mixture, thermodynamic from solid, neat DES choline chloride + glycerol (GLE) 1:2 molar ratio (x*GLE = 1.0), 298.15 K; read-out: cE solubility concentration
Measured Endpoint: solubility at 24 h (mg/mL)
Give just the number in mg/mL; leave the unit off.

Recorded solubility at 24 h (compound CC1=NN(c2ccccc2)C(=O)C1 [edaravone, 5-methyl-2-phenyl-4H-pyrazol-3-one] ): 191

Source: paper PMC9863297
